B1: Ankyrin-1, residues 1405 to 1484; numbered along this chain, P16157 (parent)
chain: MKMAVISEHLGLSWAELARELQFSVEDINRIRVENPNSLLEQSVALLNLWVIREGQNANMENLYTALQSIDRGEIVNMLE

- Variants of: B1
- assayInfo: abundance fitness (aPCA) (normalised: wild type 0, dead -1); higher = more abundant; growth selection in yeast, the domain comes from the species named
- assayConditions: Homo sapiens
Mark 0.0 for abundance fitness values under -0.3, and 1.0 for everything at or above.

Some solved entries appear below for comparison.
[[record]]
sequencetext = "MKMAVISEHLGLSWAELARELQFSVEDINRIRVENPNSLLEQSVALLNLWVIREGQNANMENLYTALQSIPRGEIVNMLE [D71P]"
answerlabel = 0.0

[[record]]
sequencetext = "MKMAVISEHLGLSWAELARELQFSVEDINRIRVELPNSLLEQSVALLNLWVIREGQNANMENLYTALQSIDRGEIVNMLE [N35L]"
answerlabel = 0.0

[[record]]
sequencetext = "MKMAVISEHLGLSWAELARELQFSVEDINRIRVENPNSLLEQSVALLNLWVIREGQNANMENLYTALQSIDRGCIVNMLE [E74C]"
answerlabel = 0.0

[[record]]
sequencetext = "MKMAVISEHLGLSWAELARELQFSVEDINRIRVENPNSLLEQSVLLLNLWVIREGQNANMENLYTALQSIDRGEIVNMLE [A45L]"
answerlabel = 0.0

[[record]]
sequencetext = "MKMAVISEHLGLSWAELARELQTSVEDINRIRVENPNSLLEQSVALLNLWVIREGQNANMENLYTALQSIDRGEIVNMLE [F23T]"
answerlabel = 0.0


# bool: abundance fitness of MKMAVISEHLGLSWAELARELQFSVEDINRIRVENPNSLLEQSVALLNLWVIREGQNANMEYLYTALQSIDRGEIVNMLE [N62Y] >= -0.3
1.0

Consider next the variant MKMAVISEHLGLSWAELARELQFSVEDINRIRVENPNSLLEQSVALLNLWVIREGQNANMENLYTALQSIDRGEIVNMQE [L79Q] in the same way.
1.0

Consider next the variant MKMAVISEHLGLSWAELARELQFSVEDINVIRVENPNSLLEQSVALLNLWVIREGQNANMENLYTALQSIDRGEIVNMLE [R30V] in the same way.
1.0

Consider next the variant MKMAVISEHLGLSWAELARELQFSVEDINRMRVENPNSLLEQSVALLNLWVIREGQNANMENLYTALQSIDRGEIVNMLE [I31M] in the same way.
0.0

Consider next the variant MKMAVISEHLGLSWAELARELQFSVEDINRIRVENPNSLLEQSVALTNLWVIREGQNANMENLYTALQSIDRGEIVNMLE [L47T] in the same way.
0.0

Consider next the variant MKMAVISEHLGLSWAELARELQFSVEDINIIRVENPNSLLEQSVALLNLWVIREGQNANMENLYTALQSIDRGEIVNMLE [R30I] in the same way.
0.0

Every entry's value here was drawn from the Human Domainome abundance scans (Beltran et al. 2025).
